Assay: Ratio of drug level in temporal muscle to blood in iv dosed dog measured after 34 mins
Type: ADME, organism-based, Canis lupus familiaris

{"columns": ["Compound", "Kp at 34 min"],
 "data": [
  ["O=[11C](O)C(O)c1ccccc1Cl (stereo unspecified)", 13.8]
]}
